- Test system: Staphylococcus aureus SAU.278, Daptomycin resistant mutant (D10)
- Assay type: cell-based
- condition-details: MHBc with 50 mg/L calcium, 18-20 hours at 37° C.
For each of the compounds below, state its Sa278 MIC.

Bench note, Staphylococcus aureus SAU.278, Daptomycin resistant mutant (D10): entry CCCCCc1ccc(/C(C)=C/C(=O)N[C@@H](Cc2c[nH]c3ccccc23)C(=O)N[C@H](CC(N)=O)C(=O)N[C@@H](CC(=O)O)C(=O)N[C@@H]2C(=O)NCC(=O)N[C@@H](CCCN)C(=O)N[C@@H](CC(=O)O)C(=O)N[C@H](C)C(=O)N[C@@H](CC(=O)O)C(=O)NCC(=O)N[C@H](CO)C(=O)N[C@@H]([C@H](C)CC(=O)O)C(=O)N[C@@H](CC(=O)c3ccccc3N)C(=O)O[C@@H]2C)cc1 , its Sa278 MIC = 1 µg/mL

Assay Staphylococcus aureus SAU.278, Daptomycin resistant mutant (D10), sample C[C@H](CC(=O)O)[C@@H]1NC(=O)[C@@H](CO)NC(=O)CNC(=O)[C@H](CC(=O)O)NC(=O)[C@@H](C)NC(=O)[C@H](CC(=O)O)NC(=O)[C@H](CCCN)NC(=O)CNC(=O)[C@@H](NC(=O)[C@H](CC(=O)O)NC(=O)[C@@H](CC(N)=O)NC(=O)[C@H](Cc2c[nH]c3ccccc23)NC(=O)CCCCCCc2ccccc2)[C@@H](C)OC(=O)[C@H](CC(=O)c2ccccc2N)NC1=O , Sa278 MIC read: >32 µg/mL

Sa278 MIC on Staphylococcus aureus SAU.278, Daptomycin resistant mutant (D10) for CC(C)Cc1ccc(C(C)C(=O)N[C@@H](Cc2c[nH]c3ccccc23)C(=O)N[C@H](CC(N)=O)C(=O)N[C@@H](CC(=O)O)C(=O)N[C@@H]2C(=O)NCC(=O)N[C@@H](CCCN)C(=O)N[C@@H](CC(=O)O)C(=O)N[C@H](C)C(=O)N[C@@H](CC(=O)O)C(=O)NCC(=O)N[C@H](CO)C(=O)N[C@@H]([C@H](C)CC(=O)O)C(=O)N[C@@H](CC(=O)c3ccccc3N)C(=O)O[C@@H]2C)cc1 (single isomer, unassigned) [45 isomer I] is >32 µg/mL

* * *

- Tested on: Enterococcus faecium EFM.384, Daptomycin resistant mutant (14-A)
- Type: cell-based
- condition-details: MHBc with 50 mg/L calcium, 18-20 hours at 37° C.
- Method: Compounds according to Formula I were tested for antimicrobial activity against a panel of organisms. […] In all cases the final concentration of dimethyl sulfoxide incubated with cells is less than or equal to 1%. […] Following incubation, (18-20 hours at 37° C. with aeration at 200 rpm) growth was confirmed visually by placing plates over a viewing apparatus (stand with a mirror underneath) and then the optical density (OD600) was measured using a SpectraMax 340PC^384 plate reader. […]
Kindly state Efm384 MIC for each of the entries shown.
Value expressed in mg/L; do not type the unit.

Per the records, this compound ( CCCCCCCCCC(C)NC(=O)N[C@@H](Cc1c[nH]c2ccccc12)C(=O)N[C@H](CC(N)=O)C(=O)N[C@@H](CC(=O)O)C(=O)N[C@@H]1C(=O)NCC(=O)N[C@@H](CCCN)C(=O)N[C@@H](CC(=O)O)C(=O)N[C@H](C)C(=O)N[C@@H](CC(=O)O)C(=O)NCC(=O)N[C@H](CO)C(=O)N[C@@H]([C@H](C)CC(=O)O)C(=O)N[C@@H](CC(=O)c2ccccc2N)C(=O)O[C@@H]1C (single isomer, unassigned) [14 isomer II] ) has Efm384 MIC equal to 8

Per the record, CCCCCCC1CCC(C(=O)N[C@@H](Cc2c[nH]c3ccccc23)C(=O)N[C@H](CC(N)=O)C(=O)N[C@@H](CC(=O)O)C(=O)N[C@@H]2C(=O)NCC(=O)N[C@@H](CCCN)C(=O)N[C@@H](CC(=O)O)C(=O)N[C@H](C)C(=O)N[C@@H](CC(=O)O)C(=O)NCC(=O)N[C@H](CO)C(=O)N[C@@H]([C@H](C)CC(=O)O)C(=O)N[C@@H](CC(=O)c3ccccc3N)C(=O)O[C@@H]2C)CC1 (stereo partly shown) [Compound 18] has Efm384 MIC of 8

Lab note: CCCCCCCCCCCCCCC(=O)N[C@@H](Cc1c[nH]c2ccccc12)C(=O)N[C@H](CC(N)=O)C(=O)N[C@@H](CC(=O)O)C(=O)N[C@@H]1C(=O)NCC(=O)N[C@@H](CCCN)C(=O)N[C@@H](CC(=O)O)C(=O)N[C@H](C)C(=O)N[C@@H](CC(=O)O)C(=O)NCC(=O)N[C@H](CO)C(=O)N[C@@H]([C@H](C)CC(=O)O)C(=O)N[C@@H](CC(=O)c2ccccc2N)C(=O)O[C@@H]1C [Compound 7] gave Efm384 MIC of 4

Efm384 MIC measured on CCCCCCCCCCCC(=O)N[C@@H](Cc1c[nH]c2ccccc12)C(=O)N[C@H](CC(N)=O)C(=O)N[C@@H](CC(=O)O)C(=O)N[C@@H]1C(=O)NCC(=O)N[C@@H](CCCN)C(=O)N[C@@H](CC(=O)O)C(=O)N[C@H](C)C(=O)N[C@@H](CC(=O)O)C(=O)NCC(=O)N[C@H](CO)C(=O)N[C@@H]([C@H](C)CC(=O)O)C(=O)N[C@@H](CC(=O)c2ccccc2N)C(=O)O[C@@H]1C [Compound 3] = 4

Consider CCCCCCC12CCC(C(=O)N[C@@H](Cc3c[nH]c4ccccc34)C(=O)N[C@H](CC(N)=O)C(=O)N[C@@H](CC(=O)O)C(=O)N[C@@H]3C(=O)NCC(=O)N[C@@H](CCCN)C(=O)N[C@@H](CC(=O)O)C(=O)N[C@H](C)C(=O)N[C@@H](CC(=O)O)C(=O)NCC(=O)N[C@H](CO)C(=O)N[C@@H]([C@H](C)CC(=O)O)C(=O)N[C@@H](CC(=O)c4ccccc4N)C(=O)O[C@@H]3C)(CC1)CC2 [Compound 23] . Its measured Efm384 MIC is 4

Given item CCCCCCCCCCCCOc1ccc(C(=O)N[C@@H](Cc2c[nH]c3ccccc23)C(=O)N[C@H](CC(N)=O)C(=O)N[C@@H](CC(=O)O)C(=O)N[C@@H]2C(=O)NCC(=O)N[C@@H](CCCN)C(=O)N[C@@H](CC(=O)O)C(=O)N[C@H](C)C(=O)N[C@@H](CC(=O)O)C(=O)NCC(=O)N[C@H](CO)C(=O)N[C@@H]([C@H](C)CC(=O)O)C(=O)N[C@@H](CC(=O)c3ccccc3N)C(=O)O[C@@H]2C)cc1 [Compound 39] , the value recorded as its Efm384 MIC is 2

// data source = patent US20150337013A1
